For each of the compounds below, state its IC50.
# Tested System: hCAII (Homo sapiens)
# Construct: made in house; host or cells: Escherichia coli BL21(DE3), pACA plasmid (gift from Carol A. Fierke)
# Assay Info: colorimetric p-nitrophenyl acetate hCAII activity assay
# Type: biochemical
# Cond: recombinant hCAII 40 nM, p-nitrophenyl acetate 500 μM, pH 8.0; 95% confidence interval; read-out: IC50 (nM), hCAII inhibition activity (Table S1)
# Method: To verify that the p-sulfamoyl benzamide MBP retained its binding following ligation with the linker and bulky recruiting group moieties, the inhibition activity of each degrader candidate was determined using a colorimetric p-nitrophenol acetate hCAII activity assay.[46] […] Recombinant hCAII was expressed and purified according to the protocol reported in the Supporting Information. […] IC50 was determined using non-linear regression with a variable slope on the GraphPad Prism software.
Numbers only, in nM.

Some entries whose results are on file:
Compound	Unit Info	IC50
NS(=O)(=O)c1ccc(C(=O)NCCOCCOCCOCCNc2cccc3c2C(=O)N(C2CCC(=O)NC2=O)C3=O)cc1 (stereo not shown)	nM	41
NS(=O)(=O)c1ccc(C(=O)NCCOCCNc2cccc3c2C(=O)N(C2CCC(=O)NC2=O)C3=O)cc1 (stereo not shown)	nM	48
COCCNC(=O)c1ccc(S(N)(=O)=O)cc1 [Compound 13, N-(2-Methoxyethyl)-4-sulfamoylbenzamide]	nM	58
NS(=O)(=O)c1ccc(C(=O)NCCOCCOCCOCCNC(=O)CC23CC4CC(CC(C4)C2)C3)cc1	nM	28
NS(=O)(=O)c1ccc(C(=O)NCCCOCCCCOCCCNC(=O)CC23CC4CC(CC(C4)C2)C3)cc1	nM	35

We next turn to a different compound, shown below.
Reported IC50 ( NS(=O)(=O)c1ccc(C(=O)NCCOCCNC(=O)CC23CC4CC(CC(C4)C2)C3)cc1 ) = 57

---

# Tested System: hCAII (Homo sapiens)
# Construct: made in house; host or cells: Escherichia coli BL21(DE3), pACA plasmid (gift from Carol A. Fierke)
# Assay Info: colorimetric p-nitrophenyl acetate hCAII activity assay
# Type: biochemical
# Cond: SMILES csv supplement; read-out: hCAII IC50
For each of the compounds below, state its pIC50.
Give bare numbers, as −log10 of the molar value.

Some entries whose results are on file:
Compound	pIC50
NS(=O)(=O)c1ccc(C(=O)NCCOCCOCCOCCNC(=O)CC23CC4CC(CC(C4)C2)C3)cc1	7.55
NS(=O)(=O)c1ccc(C(=O)NCCOCCNc2cccc3c2C(=O)N(C2CCC(=O)NC2=O)C3=O)cc1 (centres unmarked)	7.32
COCCNC(=O)c1ccc(S(N)(=O)=O)cc1 [Compound 13, N-(2-Methoxyethyl)-4-sulfamoylbenzamide]	7.24
NS(=O)(=O)c1ccc(C(=O)NCCOCCOCCOCCNc2cccc3c2C(=O)N(C2CCC(=O)NC2=O)C3=O)cc1 (centres unmarked)	7.39

We next turn to a different compound, shown below.
Entry NS(=O)(=O)c1ccc(C(=O)NCCCOCCCCOCCCNC(=O)CC23CC4CC(CC(C4)C2)C3)cc1 under hCAII (Homo sapiens) had pIC50 of 7.46
